// reported GI50 per item
System: SK-MEL-28
Experiment Summary: NCI tumour cell line growth inhibition, 48 h
Active and inactive are the calls of the source. Rule as the data show it: active = GI50 up to about 1.1 µM and inactive = higher.

Sample answers from the record:
Compound	GI50
O=C1CCCN1CCC/N=c1/cc2n(-c3ccc(Cl)cc3)c3ccccc3nc-2cc1Nc1ccc(Cl)cc1	23.8 µM (inactive)
COc1ccc(-c2oc3c(OC)c(OC)cc(O)c3c(=O)c2OC)cc1	> 100 µM (inactive)
CC(=O)O[C@H]1CC[C@@]2(C)C(=CC[C@H]3C(CC#N)[C@@](C)(C#N)CCC32)C1 (stereo not given in full)	> 100 µM (inactive)
CS(=O)(=O)Oc1cccc(/C=N/N=C(\N)NO)c1	> 100 µM (inactive)

Request: Kindly state the measured GI50 obtained for Cc1ccc(S(=O)(=O)NNC(=S)Nc2cccc3ccccc23)cc1 with SK-MEL-28.
Response: 54.1 µM (inactive)

Request: Kindly state the measured GI50 obtained for COCC(C#N)NC1CC(OC2CC(O)(C(=O)CO)Cc3c(O)c4c(c(O)c32)C(=O)c2c(OC)cccc2C4=O)OC(C)C1O (stereo not given) with SK-MEL-28.
Response: 0.156 µM (active)

Request: Kindly state the measured GI50 obtained for O=[N+]([O-])c1cccc(/C=N/C23CC4CC(CC(C4)C2)C3)c1 with SK-MEL-28.
Response: > 100 µM (inactive)

Request: Kindly state the measured GI50 obtained for C[C@]12OC[C@H](c3ccccc3)N1C(=O)C1[C@H]2CC12SCCS2 (stereo not given in full) with SK-MEL-28.
Response: > 100 µM (inactive)
